molecular target: S. aureus DnaE (DNA polymerase III α-subunit homolog from Staphylococcus aureus) (Staphylococcus aureus, UniProt Q5HF71); construct: SaDnaE (S. aureus DnaE residues 1-1065); 6xHis (N); made in house; host or cells: E. coli BL21-AI; test: biochemical; type: biochemical; conditions: S. aureus DnaE IC50
Sequence (Q5HF71 whole entry, the tested form may be a part): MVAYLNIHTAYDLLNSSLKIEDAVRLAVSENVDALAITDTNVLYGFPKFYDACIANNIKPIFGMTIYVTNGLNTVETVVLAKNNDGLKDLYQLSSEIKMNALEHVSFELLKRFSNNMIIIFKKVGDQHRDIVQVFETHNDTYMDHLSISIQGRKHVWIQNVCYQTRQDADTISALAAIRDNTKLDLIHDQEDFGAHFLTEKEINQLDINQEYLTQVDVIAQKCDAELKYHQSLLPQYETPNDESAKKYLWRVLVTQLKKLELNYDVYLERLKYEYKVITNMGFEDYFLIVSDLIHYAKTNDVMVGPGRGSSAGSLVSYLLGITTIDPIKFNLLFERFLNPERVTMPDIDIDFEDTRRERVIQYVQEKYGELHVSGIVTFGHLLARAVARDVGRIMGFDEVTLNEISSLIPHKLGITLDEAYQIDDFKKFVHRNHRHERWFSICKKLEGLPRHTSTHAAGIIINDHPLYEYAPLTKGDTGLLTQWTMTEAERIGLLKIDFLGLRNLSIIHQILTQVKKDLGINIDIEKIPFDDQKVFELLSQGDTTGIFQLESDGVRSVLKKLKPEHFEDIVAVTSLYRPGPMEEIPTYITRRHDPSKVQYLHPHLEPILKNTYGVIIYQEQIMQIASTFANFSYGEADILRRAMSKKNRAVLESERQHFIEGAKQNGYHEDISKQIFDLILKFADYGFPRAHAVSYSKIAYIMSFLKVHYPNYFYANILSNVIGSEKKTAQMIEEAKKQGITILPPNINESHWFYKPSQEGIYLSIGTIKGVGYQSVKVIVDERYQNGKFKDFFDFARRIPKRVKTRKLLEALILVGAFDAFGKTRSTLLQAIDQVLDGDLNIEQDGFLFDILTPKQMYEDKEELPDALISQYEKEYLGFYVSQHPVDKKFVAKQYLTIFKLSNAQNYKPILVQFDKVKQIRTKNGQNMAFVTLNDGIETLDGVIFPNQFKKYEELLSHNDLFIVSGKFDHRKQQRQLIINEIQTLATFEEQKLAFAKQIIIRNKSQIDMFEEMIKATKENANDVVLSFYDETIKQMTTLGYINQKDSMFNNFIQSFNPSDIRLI
pIC50: −log10 of the molar value.
property-name: pIC50

Using the record for CO[C@H]1C[C@H]2C=C[C@H]3[C@H]4O[C@]2(/C(C)=C/[C@@H](C)[C@@H]([C@@H](C)OC(=O)N2CCOCC2)OC1=O)[C@@H]3[C@H](O)[C@@H](C)[C@H]4OC(=O)c1ccc[nH]1 , state its measured pIC50.
> 8.02

Continuing:
Using the record for CC[C@H]1OC(=O)[C@@H](OC)C[C@H]2C=C[C@H]3[C@H]4O[C@]2(/C(C)=C/[C@H]1C)[C@@H]3[C@H](O)[C@@H](C)[C@H]4OC(=O)c1ccc[nH]1 , state its measured pIC50.
> 8.22

Using the record for CO[C@H]1C[C@H]2C=CC3C4[C@H](O)[C@@H](C)[C@@H](OC(=O)c5ccc[nH]5)[C@@H]3O[C@]42/C(C)=C/[C@@H](C)[C@@H]([C@@H](C)OC(=O)C(=O)OCCN2CCCC2)OC1=O.O=C(O)C(F)(F)F , state its measured pIC50.
> 8.12

Using the record for CO[C@H]1C[C@H]2C=CC3C4[C@H](O)[C@@H](C)[C@@H](OC(=O)c5ccc[nH]5)[C@@H]3O[C@]42/C(C)=C/[C@@H](C)[C@@H]([C@@H](C)OC(=O)n2nnnc2N)OC1=O , state its measured pIC50.
> 8.02

Using the record for CO[C@H]1C[C@H]2C=C[C@H]3[C@H]4O[C@]2(/C(C)=C/[C@@H](C)[C@@H]([C@@H](C)OC(=O)OCC(CO)CO)OC1=O)[C@@H]3[C@H](O)[C@@H](C)[C@H]4OC(=O)c1ccc[nH]1 , state its measured pIC50.
> 8.03

Using the record for CO[C@H]1CC2C=C[C@H]3[C@H]4O[C@]2(/C(C)=C/[C@@H](C)[C@@H]([C@@H](C)OC(=O)C[n+]2ccccc2)OC1=O)[C@@H]3[C@H](O)[C@@H](C)[C@H]4OC(=O)c1ccc[nH]1 (stereo partly shown) , state its measured pIC50.
> 8.03

Using the record for CO[C@H]1C[C@H]2C=C[C@H]3[C@H]4O[C@]2(/C(C)=C/[C@@H](C)[C@@H]([C@@H](C)O)OC1=O)[C@@H]3[C@H](O)[C@@H](C)[C@H]4OC(=O)c1ccc(Cl)[nH]1 , state its measured pIC50.
> 7.96

* * *

molecular target: E. coli DnaE (DNA polymerase III α-subunit from Escherichia coli) (Escherichia coli); construct: EcDnaE (E. coli DnaE residues 1-1160); 6xHis (N); made in house; host or cells: E. coli BL21(DE3); experiment: In vitro DnaE single enzyme assay (E. coli); type: biochemical; details: read-out: E. coli DnaE IC50 (converted)
As shown below, each of these compounds has a reported IC50 value.

Worked set:
Using the record for CO[C@H]1C[C@H]2C=CC3C4[C@H](O)[C@@H](C)[C@@H](OC(=O)c5ccc[nH]5)[C@@H]3O[C@]42/C(C)=C/[C@@H](C)C([C@@H](C)O)NC1=O (stereo partly shown) , state its measured IC50.
> 194 µM

Using the record for CO[C@H]1CC2C=C[C@H]3[C@H]4O[C@]2(/C(C)=C/[C@@H](C)[C@@H](C(C)NC2CC2)OC1=O)[C@@H]3[C@H](O)[C@@H](C)[C@H]4OC(=O)c1ccc[nH]1 (stereo partly shown) , state its measured IC50.
> 180 µM

Using the record for CO[C@H]1C[C@H]2C=CC3C4[C@H](O)[C@@H](C)[C@@H](OC(=O)c5cc(NC(C)=O)c[nH]5)[C@@H]3O[C@]42/C(C)=C/[C@@H](C)[C@@H]([C@@H](C)O)OC1=O , state its measured IC50.
> 87.3 µM

Continuing:
Using the record for CO[C@H]1C[C@H]2C=C[C@H]3[C@H]4O[C@]2(/C(C)=C/[C@@H](C)[C@@H]([C@@H](C)O)OC1=O)[C@@H]3C(=O)[C@@H](C)[C@H]4OC(=O)c1ccc[nH]1 , state its measured IC50.
> 195 µM

Using the record for CO[C@H]1CC2C=C[C@H]3[C@H]4O[C@]2(/C(C)=C/[C@@H](C)[C@@H]([C@@H](C)O)OC1=O)[C@@H]3[C@H](OC(N)=O)[C@@H](C)[C@H]4OC(=O)c1ccc[nH]1 (stereo partly shown) , state its measured IC50.
~197 µM

Using the record for CO[C@H]1C[C@H]2C=C[C@H]3[C@H]4O[C@]2(/C(C)=C/[C@@H](C)[C@@H]([C@@H](C)OC(N)=O)OC1=O)[C@@H]3[C@H](OC(N)=O)[C@@H](C)[C@H]4OC(=O)c1ccc[nH]1 , state its measured IC50.
> 166 µM

Using the record for CO[C@H]1C[C@H]2C(=O)C[C@H]3[C@H]4O[C@]2(/C(C)=C/[C@@H](C)[C@@H]([C@@H](C)O)OC1=O)[C@@H]3[C@H](O)[C@@H](C)[C@H]4OC(=O)c1ccc[nH]1 , state its measured IC50.
> 188 µM

* * *

biological target: S. aureus DnaE (DNA polymerase III α-subunit homolog from Staphylococcus aureus) (Staphylococcus aureus, UniProt Q5HF71); construct: SaDnaE (S. aureus DnaE residues 1-1065); 6xHis (N); made in house; host or cells: E. coli BL21-AI; experiment: biochemical; type: biochemical; settings: S. aureus DnaE IC50
As shown below, each of these molecules has a reported IC50 value.

Using the record for CO[C@H]1C[C@H]2C=C[C@@H]3[C@H]4C(=O)C(C)C(C[N+](=O)[O-])[C@@H]3O[C@@]24/C(C)=C/[C@@H](C)[C@@H]([C@@H](C)OCSC)OC1=O (stereo partly drawn) [Example 175] , state its measured IC50.
> 191000 nM

Using the record for COC1CC2C=CC3C4OC2(C(C)=CC(C)C(C(C)OC(=O)OCCN(CCO)CCO)OC1=O)C3C(O)C(C)C4OC(=O)c1ccc[nH]1 (stereo not drawn) [Example 32] , state its measured IC50.
~6.51 nM

Let us examine a further case.
Using the record for CO[C@H]1C[C@H]2CC[C@H]3[C@H]4O[C@]2(/C(C)=C/[C@@H](C)[C@@H]([C@@H](C)O)OC1=O)[C@@H]3[C@H](O)[C@@H](C)[C@H]4OC(=O)c1ccc[nH]1 [Example 37] , state its measured IC50.
< 96.6 nM

* * *

target: E. coli DnaE (DNA polymerase III α-subunit from Escherichia coli) (Escherichia coli, UniProt P10443); construct: EcDnaE (E. coli DnaE residues 1-1160); 6xHis (N); made in house; host or cells: E. coli BL21(DE3); experiment: In vitro DnaE single enzyme assay (E. coli); type: biochemical; settings: read-out: E. coli DnaE IC50 (converted)
Sequence (P10443 whole entry, the tested form may be a part): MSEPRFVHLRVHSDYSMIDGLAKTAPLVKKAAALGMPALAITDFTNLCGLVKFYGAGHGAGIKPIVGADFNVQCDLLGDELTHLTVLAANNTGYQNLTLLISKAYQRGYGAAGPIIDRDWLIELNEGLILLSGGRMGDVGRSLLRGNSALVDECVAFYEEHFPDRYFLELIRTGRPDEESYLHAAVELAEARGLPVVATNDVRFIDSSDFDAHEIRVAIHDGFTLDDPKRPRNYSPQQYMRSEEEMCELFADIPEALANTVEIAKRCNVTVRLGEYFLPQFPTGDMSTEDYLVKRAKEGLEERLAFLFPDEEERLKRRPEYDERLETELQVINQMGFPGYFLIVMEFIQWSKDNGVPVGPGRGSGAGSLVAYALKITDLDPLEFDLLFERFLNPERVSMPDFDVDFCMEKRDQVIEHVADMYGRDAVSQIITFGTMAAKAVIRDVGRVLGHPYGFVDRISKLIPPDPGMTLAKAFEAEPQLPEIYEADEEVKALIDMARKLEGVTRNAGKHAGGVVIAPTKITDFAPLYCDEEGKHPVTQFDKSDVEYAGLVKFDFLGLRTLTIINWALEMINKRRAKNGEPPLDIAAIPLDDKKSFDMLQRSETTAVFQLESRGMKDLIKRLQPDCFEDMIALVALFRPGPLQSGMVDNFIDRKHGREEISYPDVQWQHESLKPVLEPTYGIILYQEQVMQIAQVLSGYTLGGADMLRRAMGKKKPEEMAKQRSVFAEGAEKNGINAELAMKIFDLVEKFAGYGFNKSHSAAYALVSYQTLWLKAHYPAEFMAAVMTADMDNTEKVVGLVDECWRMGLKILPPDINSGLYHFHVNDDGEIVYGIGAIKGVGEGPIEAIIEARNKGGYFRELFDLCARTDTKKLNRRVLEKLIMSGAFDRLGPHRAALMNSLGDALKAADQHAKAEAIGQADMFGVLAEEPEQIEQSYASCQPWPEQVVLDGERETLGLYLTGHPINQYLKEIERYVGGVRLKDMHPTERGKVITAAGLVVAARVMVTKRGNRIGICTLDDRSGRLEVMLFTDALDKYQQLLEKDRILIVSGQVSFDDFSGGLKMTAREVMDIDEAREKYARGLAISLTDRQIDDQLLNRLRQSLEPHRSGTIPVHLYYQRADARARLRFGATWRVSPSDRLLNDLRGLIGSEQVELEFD
As shown below, each of these compounds has a reported IC50 value.

Worked set:
Using the record for COC(=O)/C=C/c1c[nH]c(C(=O)O[C@@H]2[C@H](C)[C@@H](O)[C@@H]3[C@H]4C=CC5C[C@H](OC)C(=O)O[C@H](C(C)O)[C@H](C)/C=C(\C)[C@]53O[C@H]42)c1 (some centres unmarked) [Example 166] , state its measured IC50.
> 83.4 µM

Using the record for CO[C@H]1CC2C=C[C@H]3[C@H]4O[C@]2(/C(C)=C/[C@@H](C)[C@@H]([C@@H](C)OC(=O)NCCO)OC1=O)[C@@H]3[C@H](O)[C@@H](C)[C@H]4OC(=O)c1ccc[nH]1 (some centres unmarked) [Example 15] , state its measured IC50.
~183 µM

Using the record for COC1CC2C=CC3C4OC2(C(C)=CC(C)C(C(C)OC(=O)OCCN(CCO)CCO)OC1=O)C3C(O)C(C)C4OC(=O)c1ccc[nH]1 (centres unmarked) [Example 32] , state its measured IC50.
> 145 µM

Continuing:
Using the record for CO[C@H]1C[C@H]2C=CC3C4[C@H](O)[C@@H](C)[C@@H](OC(=O)c5ccc(OC(C)=O)n5O)[C@@H]3O[C@]42/C(C)=C/[C@@H](C)[C@@H]([C@@H](C)O)OC1=O [Example 173] , state its measured IC50.
> 170 µM

Using the record for CO[C@H]1C[C@H]2C[C@@H](O)[C@H]3[C@H]4O[C@]2(/C(C)=C/[C@@H](C)[C@@H]([C@@H](C)O)OC1=O)[C@@H]3[C@H](O)[C@@H](C)[C@H]4OC(=O)c1ccc[nH]1 [Example 194] , state its measured IC50.
> 187 µM

* * *

molecular target: S. aureus DnaE (DNA polymerase III α-subunit homolog from Staphylococcus aureus) (Staphylococcus aureus, UniProt Q5HF71); construct: SaDnaE (S. aureus DnaE residues 1-1065); 6xHis (N); made in house; host or cells: E. coli BL21-AI; experiment: biochemical; format: biochemical; conditions: S. aureus DnaE IC50
property-name: pIC50
Just so you know, pIC50 here is -log10 of the concentration in molar units; reply with that number alone.

Worked set:
Using the record for CO[C@H]1C[C@H]2C=C[C@H]3[C@H]4O[C@]2(/C(C)=C/[C@@H](C)[C@@H]([C@@H](C)OC(=O)NCCc2ccccc2)OC1=O)[C@@H]3[C@H](O)[C@@H](C)[C@H]4OC(=O)c1ccc[nH]1 , state its measured pIC50.
7.17

Using the record for CO[C@H]1C[C@H]2C=C[C@H]3[C@H]4O[C@]2(/C(C)=C/[C@@H](C)COC1=O)[C@@H]3[C@H](O)[C@@H](C)[C@H]4OC(=O)c1ccc[nH]1 , state its measured pIC50.
7.05

Using the record for CO[C@H]1C[C@H]2C(=O)C[C@H]3[C@H]4O[C@]2(/C(C)=C/[C@@H](C)[C@@H]([C@@H](C)O)OC1=O)[C@@H]3[C@H](O)[C@@H](C)[C@H]4OC(=O)c1ccc[nH]1 , state its measured pIC50.
7.42

Using the record for CO[C@H]1C[C@H]2C=C[C@@H]3[C@H]4[C@H](O)[C@@H](C)C(n5ccnc5)[C@@H]3O[C@]42/C(C)=C/[C@@H](C)[C@@H]([C@@H](C)O)OC1=O (stereo partly shown) , state its measured pIC50.
4.63

Let us examine a further case.
Using the record for CO[C@H]1C[C@H]2CC(=O)[C@H]3[C@H]4O[C@]2(/C(C)=C/[C@@H](C)[C@@H]([C@@H](C)O)OC1=O)[C@@H]3[C@H](O)[C@@H](C)[C@H]4OC(=O)c1ccc[nH]1 , state its measured pIC50.
7.03
